# method: PK profile in rats
# Type: in vivo, rat
# conditions-used: rat, in vivo; rats
assay-metric: AUC(0-t) (µg·h/mL)
Only the number, expressed in µg·h/mL, is required.

Data request: Looking for the measured AUC(0-t) of CC(C)(CC(=O)O)NC(=O)c1nc(C#N)c2cc(Oc3ccccc3)ccc2c1O [Formula I] , can you help?
Data returned: 1010

---

# method: Preliminary PK profile in dogs
# Type: in vivo, dog
# conditions-used: dog, in vivo; dogs, preliminary
# Text: The preliminary PK profile of the compound of Formula I in dogs was studied and the results are shown in FIG. 19 and summarized in the following Table.
assay-metric: AUC(0-t)
Entry format: amount then unit.

Data request: Given the entry `CC(C)(CC(=O)O)NC(=O)c1nc(C#N)c2cc(Oc3ccccc3)ccc2c1O` , report its measured AUC(0-t).
Data returned: 10200 ng·h/mL

---

# method: Tissue distribution in mice
# Type: in vivo, mouse
# conditions-used: male, Swiss Webster, mouse; Heart, 4 h post dose; mice, single iv 60 mg/kg; read-out: Tissue/plasma ratio
# Protocol: • N=3/time point, male Swiss Webster mice, single iv dose, 60 mg/kg Compound of Formula I
assay-metric: Kp at 4 h
Simply state the number, no unit and no words.

Data request: I have this compound here, `CC(C)(CC(=O)O)NC(=O)c1nc(C#N)c2cc(Oc3ccccc3)ccc2c1O` , and I need its recorded Kp at 4 h.
Data returned: 0.18

---

# test-target: PHD1 (Homo sapiens (Human), UniProt Q96KS0)
# Sequence (Q96KS0 whole entry, species assumed): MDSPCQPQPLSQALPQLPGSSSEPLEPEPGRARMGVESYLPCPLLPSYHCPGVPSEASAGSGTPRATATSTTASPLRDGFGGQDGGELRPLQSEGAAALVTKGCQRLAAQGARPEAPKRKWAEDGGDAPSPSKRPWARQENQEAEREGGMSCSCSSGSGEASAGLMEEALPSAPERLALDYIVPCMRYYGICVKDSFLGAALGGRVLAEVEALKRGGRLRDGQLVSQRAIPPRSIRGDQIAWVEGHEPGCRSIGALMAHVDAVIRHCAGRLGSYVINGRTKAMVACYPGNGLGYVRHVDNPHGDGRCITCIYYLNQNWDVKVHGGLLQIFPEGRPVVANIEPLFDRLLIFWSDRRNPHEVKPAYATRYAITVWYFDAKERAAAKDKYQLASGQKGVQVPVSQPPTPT
# method: HIF-PH assay (14CO2 capture), PHD1
# Format: biochemical
# conditions-used: additional experiment, Table 1A
assay-metric: IC50

Data request: Given CC(C)(CC(=O)O)NC(=O)c1nc(C#N)c2cc(Oc3ccccc3)ccc2c1O [Formula I] , state its recorded IC50.
Data returned: 0.7 µM

---

# method: PK profile in monkeys
# Format: in vivo, monkey
# conditions-used: both sexes, monkey, in vivo, oral; monkeys, males and females
assay-metric: Cmax (ng/mL)
Give a bare numeral; the unit ng/mL is implied.

Data request: Any idea what its Cmax is? The compound is `CC(C)(CC(=O)O)NC(=O)c1nc(C#N)c2cc(Oc3ccccc3)ccc2c1O`
Data returned: 10900

---

# method: Tissue distribution in mice
# Format: in vivo, mouse
# conditions-used: male, Swiss Webster, mouse; Kidney, 4 h post dose; mice, single iv 60 mg/kg; read-out: Tissue/plasma ratio
assay-metric: Kp at 4 h
Please give only the number in your answer, with no unit.

Data request: Which Kp at 4 h reading was recorded for the molecule `CC(C)(CC(=O)O)NC(=O)c1nc(C#N)c2cc(Oc3ccccc3)ccc2c1O` ?
Data returned: 0.16

---

# method: PK profile in monkeys
# Type: in vivo, monkey
# conditions-used: both sexes, monkey, in vivo; monkeys, males and females; read-out: Vss
assay-metric: Vd (L/kg)
Please give a number only; it is taken to be in L/kg.

Data request: I am curious: what Vd value has been reported for CC(C)(CC(=O)O)NC(=O)c1nc(C#N)c2cc(Oc3ccccc3)ccc2c1O [Formula I] ?
Data returned: 0.184

---

# method: PK profile in monkeys
# Assay type: in vivo, monkey
# conditions-used: both sexes, monkey, in vivo; monkeys, males and females
assay-metric: AUC(0-inf) (µg·h/mL)
Number only, in µg·h/mL; omit the unit.

Data request: AUC(0-inf) for `CC(C)(CC(=O)O)NC(=O)c1nc(C#N)c2cc(Oc3ccccc3)ccc2c1O` ?
Data returned: 180
